Measured values drawn from patent US20190337924A1 for this set.

# TESTED_TARGET: F876L mutant Androgen Receptor (AR-F876L) (Homo sapiens, UniProt P10275, F877L)
# Construct: expressed in transfected cells; host or cells: LNCaP
# Sequence (P10275 1-920 F877L): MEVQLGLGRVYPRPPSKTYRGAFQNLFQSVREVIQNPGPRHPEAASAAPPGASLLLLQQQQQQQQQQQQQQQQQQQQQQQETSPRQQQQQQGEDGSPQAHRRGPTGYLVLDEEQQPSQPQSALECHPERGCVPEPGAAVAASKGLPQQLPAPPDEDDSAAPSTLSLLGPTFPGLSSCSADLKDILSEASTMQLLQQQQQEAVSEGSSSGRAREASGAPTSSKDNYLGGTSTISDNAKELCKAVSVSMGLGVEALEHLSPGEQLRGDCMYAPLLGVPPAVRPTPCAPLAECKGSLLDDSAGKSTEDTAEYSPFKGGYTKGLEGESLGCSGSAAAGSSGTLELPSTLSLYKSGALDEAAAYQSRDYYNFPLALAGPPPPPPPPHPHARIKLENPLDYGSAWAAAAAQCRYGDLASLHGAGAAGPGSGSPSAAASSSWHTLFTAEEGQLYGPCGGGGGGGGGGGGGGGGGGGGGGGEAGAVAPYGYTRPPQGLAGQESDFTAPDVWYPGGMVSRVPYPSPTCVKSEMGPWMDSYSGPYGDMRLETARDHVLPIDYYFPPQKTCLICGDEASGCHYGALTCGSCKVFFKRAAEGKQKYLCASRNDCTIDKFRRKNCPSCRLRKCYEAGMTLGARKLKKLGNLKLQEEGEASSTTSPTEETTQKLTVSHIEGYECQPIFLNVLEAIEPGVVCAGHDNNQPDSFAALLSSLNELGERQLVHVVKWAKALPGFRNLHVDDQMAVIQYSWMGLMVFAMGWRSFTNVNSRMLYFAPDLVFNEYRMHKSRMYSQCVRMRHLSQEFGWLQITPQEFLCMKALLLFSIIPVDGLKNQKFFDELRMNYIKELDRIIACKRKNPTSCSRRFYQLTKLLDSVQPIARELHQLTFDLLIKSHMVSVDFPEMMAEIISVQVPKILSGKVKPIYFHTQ
# PROCEDURE_SUMMARY: AR reporter assay, LNCaP-AR-F876L AG (agonist mode)
# Type: cell-based
# MEASUREMENT_PARAMETERS: read-out: LNCaP-AR-F876L AG MAX % Stim
Structures can show the parent of a compound that is named as a salt.
MEASURE: Emax (%)
Your answer is read as %, so omit the unit and give the number.

Please review the entries below; each comes with its answer.
COMPOUND | TESTED_TARGET | Emax (%)
N#Cc1ccc(N2C(=O)C3(CCC3)N(c3ccc(OC4CCNCC4)cc3)C2=S)cc1Cl [Compound 21] | F876L mutant Androgen Receptor (AR-F876L) (Homo sapiens, UniProt P10275, F877L) | 0.2
COc1cc(N2C(=O)C3(CCC3)N(c3ccc(OC4CCN(C)CC4)cc3)C2=S)ccc1C#N [Compound 19] | F876L mutant Androgen Receptor (AR-F876L) (Homo sapiens, UniProt P10275, F877L) | 0.3
CC1(C)C(=O)N(c2ccc(C#N)c(C(F)(F)F)c2)C(=S)N1c1cnc(OC2CCNCC2)nc1 [Compound 5] | F876L mutant Androgen Receptor (AR-F876L) (Homo sapiens, UniProt P10275, F877L) | 0
CN1CCC(Oc2ccc(N3C(=S)N(c4ccc(C#N)c(Cl)c4)C(=O)C3(C)C)cc2)CC1 [Compound 8, hydrochloride] | F876L mutant Androgen Receptor (AR-F876L) (Homo sapiens, UniProt P10275, F877L) | 0.1
CC1(C)C(=O)N(c2ccc(C#N)c(Cl)c2)C(=S)N1c1ccc(OC2CCNCC2)cc1 [Compound 7, hydrochloride] | F876L mutant Androgen Receptor (AR-F876L) (Homo sapiens, UniProt P10275, F877L) | -0.1

Problem: Consider the compound shown here: CN1CCC(Oc2ccc(N3C(=S)N(c4ccc(C#N)c(C(F)(F)F)c4)C(=O)C34CCC4)cc2)CC1 [Compound 12] What is its recorded Emax?
Result: 0.2

Problem: Consider the compound shown here: CC1(C)C(=O)N(c2ccc(C#N)c(Cl)c2)C(=S)N1c1ccc(OC2CCNCC2)nc1 [Compound 9, hydrochloride] What is its recorded Emax?
Result: 0

Problem: Consider the compound shown here: CN1CCC(Oc2ccc(N3C(=S)N(c4ccc(C#N)c(C(F)(F)F)c4)C(=O)C34CCC4)cn2)CC1 [Compound 14] What is its recorded Emax?
Result: 0.1

Problem: Consider the compound shown here: CC1(C)C(=O)N(c2ccc(C#N)c(C(F)(F)F)c2)C(=S)N1c1ccc(OC2CCNCC2)nc1 [Compound 3, hydrochloride] What is its recorded Emax?
Result: 0.3

Problem: Consider the compound shown here: CN1CCC(Oc2ccc(N3C(=S)N(c4ccc(C#N)c(C(F)(F)F)c4)C(=O)C3(C)C)cc2)CC1 [Compound 2, hydrochloride] What is its recorded Emax?
Result: 0.1

###

# TESTED_TARGET: F876L mutant Androgen Receptor (AR-F876L) (Homo sapiens, UniProt P10275, F877L)
# Construct: expressed in transfected cells; host or cells: LNCaP
# PROCEDURE_SUMMARY: AR reporter assay, LNCaP-AR-F876L ANT (antagonist mode)
# Assay type: cell-based
# MEASUREMENT_PARAMETERS: antagonist mode, 600 pM R-1881 challenge, luciferase reporter; -Log10(IC50 in Molar); read-out: LNCaP-AR-F876L ANT pIC50 (converted)
# Procedure: […] LNCaP cells were grown to about 80% confluence, media removed and cells rinsed in Hank's balanced salt solution prior to separation from the plate with 0.05% Trypsin EDTA. […] After 1 h, plates were read for luminescence on a BMG Pherastar. […] EC/IC50 calculations were achieved utilizing calculated RLU data and data fitting macros. […]
Overview of recorded IC50 for various compounds
Your answer is read as nM, so omit the unit and give the number.

Please review the entries below; each comes with its answer.
INPUT_SMILES | READOUT_VALUE
N#Cc1ccc(N2C(=O)C3(CCC3)N(c3ccc(OC4CCNCC4)cc3)C2=S)cc1Cl | 200
Cc1cc(N2C(=O)C3(CCC3)N(c3ccc(OC4CCN(C)CC4)nc3)C2=S)ccc1C#N | 282
CN1CCC(Oc2ncc(N3C(=S)N(c4ccc(C#N)c(C(F)(F)F)c4)C(=O)C3(C)C)cn2)CC1 | 135

Problem: Consider the compound shown here: Cc1cc(N2C(=O)C3(CCC3)N(c3ccc(OC4CCN(C)CC4)cc3)C2=S)ccc1C#N What is its recorded IC50?
Result: 129

###

# Tested on: VCaP cells
# PROCEDURE_SUMMARY: Prostate Cancer Cell Viability Assay-VCaP
# Assay type: cell-based
# MEASUREMENT_PARAMETERS: Homo sapiens, 120 h, 10% Charcoal Stripped Serum, 5 days, CellTiter-Glo, * n = 1
Where a name gives a salt, the structure may show the parent alone.
MEASURE: IC50
Include the unit after the number when you answer.

Please review the entries below; each comes with its answer.
COMPOUND | READOUT_VALUE
CC1(C)C(=O)N(c2ccc(C#N)c(Cl)c2)C(=S)N1c1ccc(OC2CCNCC2)cc1 [Compound 7, hydrochloride] | 1.44 µM
Cc1cc(N2C(=O)C3(CCC3)N(c3ccc(OC4CCN(C)CC4)nc3)C2=S)ccc1C#N | 12.1 µM
CN1CCC(Oc2ccc(N3C(=S)N(c4ccc(C#N)c(Cl)c4)C(=O)C34CCC4)cc2)CC1 | 0.58 µM

Problem: Consider the compound shown here: CN1CCC(Oc2ccc(N3C(=S)N(c4ccc(C#N)c(C(F)(F)F)c4)C(=O)C34CCC4)cc2)CC1 What is its recorded IC50?
Result: 21 µM

Problem: Consider the compound shown here: N#Cc1ccc(N2C(=O)C3(CCC3)N(c3ccc(OC4CCNCC4)cc3)C2=S)cc1C(F)(F)F What is its recorded IC50?
Result: 1.06 µM

Problem: Consider the compound shown here: COc1cc(N2C(=O)C3(CCC3)N(c3ccc(OC4CCN(C)CC4)cc3)C2=S)ccc1C#N What is its recorded IC50?
Result: 9.87 µM

Problem: Consider the compound shown here: CC1(C)C(=O)N(c2ccc(C#N)c(C(F)(F)F)c2)C(=S)N1c1ccc(OC2CCNCC2)nc1 [Compound 3, hydrochloride] What is its recorded IC50?
Result: 4.86 µM

###

# TESTED_TARGET: wild-type Androgen Receptor (AR-wt) (Homo sapiens)
# Construct: expressed in transfected cells; host or cells: LNCaP
# PROCEDURE_SUMMARY: AR reporter assay, LNCaP-AR-wt ANT (antagonist mode)
# Type: cell-based
Counter-ions that a name gives are not always drawn.
Overview of recorded pIC50 for various compounds
The meaning of pIC50 here: minus log10 of the concentration in molar units.

COMPOUND | pIC50
CN1CCC(Oc2ccc(N3C(=S)N(c4ccc(C#N)c(C(F)(F)F)c4)C(=O)C3(C)C)cc2)CC1 [Compound 2, hydrochloride] | 7.01

Problem: Field: pIC50 (wild-type Androgen Receptor (AR-wt) (Homo sapiens)). Entry: N#Cc1ccc(N2C(=O)C3(CCC3)N(c3ccc(OC4CCNCC4)cc3)C2=S)cc1C(F)(F)F [Compound 11]
Result: 6.48

Problem: Field: pIC50 (wild-type Androgen Receptor (AR-wt) (Homo sapiens)). Entry: N#Cc1ccc(N2C(=O)C3(CCC3)N(c3ccc(OC4CCNCC4)nc3)C2=S)cc1C(F)(F)F [Compound 13, hydrochloride]
Result: 7.20

Problem: Field: pIC50 (wild-type Androgen Receptor (AR-wt) (Homo sapiens)). Entry: CC1(C)C(=O)N(c2ccc(C#N)c(C(F)(F)F)c2)C(=S)N1c1ccc(OC2CCNCC2)nc1 [Compound 3, hydrochloride]
Result: 7.33

Problem: Field: pIC50 (wild-type Androgen Receptor (AR-wt) (Homo sapiens)). Entry: CN1CCC(Oc2ccc(N3C(=S)N(c4ccc(C#N)c(Cl)c4)C(=O)C34CCC4)cn2)CC1 [Compound 24, hydrochloride]
Result: 7.02
